Hello, the source for this data is PubChem BioAssay (EPA / NIEHS), in case you need it.

# Read-out: Interleukin 2 (IL2), IL2 (gene 3558)
# METHOD SUMMARY: BSK_BT_xIL2: BioMAP Diversity Plus: BT Assay for Interleukin 2 (IL2) Biomarker Activity (AID 2284245)
# SETTINGS: primary human B cells with PBMC
The source made the active and inactive calls. Rule for the calls: active = hit-call score of the fitted dose curve at least 0.9, where 1 is the maximum; inactive = score below 0.9.
Possible outcomes: active, inactive

compound=O=[N+]([O-])c1ccc2c3c(cccc13)CC2 label=inactive
compound=O=C(O)C(F)(F)C(F)(F)C(F)(F)C(F)(F)C(F)(F)C(F)(F)F label=inactive
compound=COP(=S)(OC)Oc1c(Cl)cc(C)cc1Cl label=inactive
compound=OCc1ccco1 label=inactive
compound=CC(C)CCCCCCOC(=O)c1ccccc1C(=O)OCCCCCCC(C)C label=inactive
compound=Oc1ccc(-c2ccccc2)cc1 label=inactive
compound=CCOP(=S)(OCC)SCCS(=O)(=O)CC label=active
compound="CCCCC(CC)CO[N+](=O)[O-] (configuration not stated)" label=inactive
compound=ClC1=C(Cl)[C@]2(Cl)[C@H]3[C@H]([C@H]4C=C[C@H]3C4)[C@@]1(Cl)C2(Cl)Cl label=inactive
compound="CCOP(=S)(OCC)Oc1ccc(S(C)=O)cc1 (configuration not stated)" label=inactive
compound=CCCCCCCCC(=O)NCc1ccc(O)c(OC)c1 label=inactive
compound="CCSC(C)CC1CC(=O)C(C(CC)=NOC/C=C/Cl)=C(O)C1 (configuration not stated)" label=inactive
